viscosity for assorted compounds
assay-protocol: xn = mol fraction of the nth substance listed
measurement-context: 283.15 K; 100 kPa; Liquid; Cone and plate viscometry; x1 = 0.6
quantity: viscosity (mPa·s)

compound	quantity	experimental-value
CCCCCCCCCCCCCC[P+](CCCCCC)(CCCCCC)CCCCCC.N#Cc1ccc[n-]1 [trihexyl(tetradecyl)phosphonium 2-cyanopyrrolide] + CCCCCC[n+]1ccn(C)c1.O=S(=O)([N-]S(=O)(=O)C(F)(F)F)C(F)(F)F	viscosity	938
CC(=O)[O-].CCCCCCCCCCCCCC[P+](CCCCCC)(CCCCCC)CCCCCC [trihexyl(tetradecyl)phosphonium acetate] + CCCCCC[n+]1ccn(C)c1.O=S(=O)([N-]S(=O)(=O)C(F)(F)F)C(F)(F)F	viscosity	1669
CCCCCCn1cc[n+](C)c1.N#Cc1ccc[n-]1 [1-hexyl-3-methylimidazolium 2-cyanopyrrolide] + CCCCCCCCCCCCCC[P+](CCCCCC)(CCCCCC)CCCCCC.O=S(=O)([N-]S(=O)(=O)C(F)(F)F)C(F)(F)F	viscosity	905
CCCCCCCC[P+](CC)(CC)CC.O=[N+]([O-])c1cn[n-]c1 [triethyloctylphosphonium 4-nitropyrazolide] + CCCCCCn1cc[n+](C)c1C.O=S(=O)([N-]S(=O)(=O)C(F)(F)F)C(F)(F)F	viscosity	795

---

assay-protocol: xn = mol fraction of the nth substance listed
measurement-context: 318.15 K; 100 kPa; Liquid; Cone and plate viscometry; x1 = 0.499

molecule	viscosity (mPa·s)
CCCCCCn1cc[n+](C)c1.N#Cc1ccc[n-]1 [1-hexyl-3-methylimidazolium 2-cyanopyrrolide] + CCCCCCCCCCCCCC[P+](CCCCCC)(CCCCCC)CCCCCC.O=S(=O)([N-]S(=O)(=O)C(F)(F)F)C(F)(F)F	100
CCCCCCn1cc[n+](C)c1C.O=[N+]([O-])c1cn[n-]c1 [1-hexyl-2,3-dimethylimidazolium 4-nitropyrazolide] + CCCCCCCC[P+](CC)(CC)CC.O=S(=O)([N-]S(=O)(=O)C(F)(F)F)C(F)(F)F	72
CC(=O)[O-].CCCCCCCCCCCCCC[P+](CCCCCC)(CCCCCC)CCCCCC [trihexyl(tetradecyl)phosphonium acetate] + CCCCCC[n+]1ccn(C)c1.O=S(=O)([N-]S(=O)(=O)C(F)(F)F)C(F)(F)F	141
CCCCCCn1cc[n+](C)c1.O=[N+]([O-])c1cn[n-]c1 [1-hexyl-3-methylimidazolium 4-nitropyrazolide] + CCCCCCCC[P+](CC)(CC)CC.O=S(=O)([N-]S(=O)(=O)C(F)(F)F)C(F)(F)F	57
CCCCCCCC[P+](CC)(CC)CC.O=[N+]([O-])c1cn[n-]c1 [triethyloctylphosphonium 4-nitropyrazolide] + CCCCCC[n+]1ccn(C)c1.O=S(=O)([N-]S(=O)(=O)C(F)(F)F)C(F)(F)F	59

---

assay-protocol: xn = mol fraction of the nth substance listed
measurement-context: 288.15 K; 100 kPa; Liquid; Cone and plate viscometry; x1 = 0.898
viscosity for assorted molecules

molecule	viscosity [mPa·s]
CCCCCCCCCCCCCC[P+](CCCCCC)(CCCCCC)CCCCCC.O=[N+]([O-])c1cn[n-]c1 [trihexyl(tetradecyl)phosphonium 4-nitropyrazolide] + CCCCCC[n+]1ccn(C)c1.O=S(=O)([N-]S(=O)(=O)C(F)(F)F)C(F)(F)F	1297
CCCCCCCC[P+](CC)(CC)CC.O=[N+]([O-])c1cn[n-]c1 [triethyloctylphosphonium 4-nitropyrazolide] + CCCCCC[n+]1ccn(C)c1.O=S(=O)([N-]S(=O)(=O)C(F)(F)F)C(F)(F)F	535
CCCCCCCCCCCCCC[P+](CCCCCC)(CCCCCC)CCCCCC.N#Cc1ccc[n-]1 [trihexyl(tetradecyl)phosphonium 2-cyanopyrrolide] + CCCCCC[n+]1ccn(C)c1.O=S(=O)([N-]S(=O)(=O)C(F)(F)F)C(F)(F)F	830
CCCCCCn1cc[n+](C)c1C.O=[N+]([O-])c1cn[n-]c1 [1-hexyl-2,3-dimethylimidazolium 4-nitropyrazolide] + CCCCCCCCCCCCCC[P+](CCCCCC)(CCCCCC)CCCCCC.O=S(=O)([N-]S(=O)(=O)C(F)(F)F)C(F)(F)F	2241

---

measurement-context: 293.15 K; 100 kPa; Liquid; Vibrating tube method
quantity: mass density (kg/m3)

> print(dat)
                                   compound  experimental.value
1  CCCCCCn1cc[n+](C)c1C.O=S(=O)([N-]S(=O)(=O)C(F)(F)F)C(F)(F)F              1363.9
2  CCn1cc[n+](C)c1.O=S(=O)([N-]S(=O)(=O)C(F)(F)F)C(F)(F)F              1523.9
3  CCCCCC[n+]1ccn(C)c1.O=S(=O)([N-]S(=O)(=O)C(F)(F)F)C(F)(F)F              1376.5
4  CCCC[n+]1ccn(C)c1.O=S(=O)([N-]S(=O)(=O)C(F)(F)F)C(F)(F)F              1441.5
5  CCCCCCCC[P+](CC)(CC)CC.O=[N+]([O-])c1cn[n-]c1 [triethyloctylphosphonium 4-nitropyrazolide]              1034.6

---

assay-protocol: xn = mol fraction of the nth substance listed
measurement-context: 278.15 K; 100 kPa; Liquid; Cone and plate viscometry; x1 = 0.1

compound	viscosity, mPa·s
CCCCCCCCCC[P+](CC)(CC)CC.O=[N+]([O-])c1cn[n-]c1 [decyltriethylphosphonium 4-nitropyrazolide] + CC[P+](CC)(CC)COCCOC.O=S(=O)([N-]S(=O)(=O)C(F)(F)F)C(F)(F)F	103
CCCCCCCCCCCCCC[P+](CCCCCC)(CCCCCC)CCCCCC.N#Cc1ccc[n-]1 [trihexyl(tetradecyl)phosphonium 2-cyanopyrrolide] + CCCCCC[n+]1ccn(C)c1.O=S(=O)([N-]S(=O)(=O)C(F)(F)F)C(F)(F)F	337
CCCCCCCCCCCCCC[P+](CCCCCC)(CCCCCC)CCCCCC.N#Cc1ccc[n-]1 [trihexyl(tetradecyl)phosphonium 2-cyanopyrrolide] + CCCCCCn1cc[n+](C)c1C.O=S(=O)([N-]S(=O)(=O)C(F)(F)F)C(F)(F)F	701
CCCCCCn1cc[n+](C)c1.N#Cc1ccc[n-]1 [1-hexyl-3-methylimidazolium 2-cyanopyrrolide] + CCCCCCCCCCCCCC[P+](CCCCCC)(CCCCCC)CCCCCC.O=S(=O)([N-]S(=O)(=O)C(F)(F)F)C(F)(F)F	1166
CCCCCCn1cc[n+](C)c1.O=[N+]([O-])c1cn[n-]c1 [1-hexyl-3-methylimidazolium 4-nitropyrazolide] + CCCCCCCC[P+](CC)(CC)CC.O=S(=O)([N-]S(=O)(=O)C(F)(F)F)C(F)(F)F	402

---

assay-protocol: xn = mol fraction of the nth substance listed
measurement-context: 298.15 K; 100 kPa; Liquid; Cone and plate viscometry; x1 = 0.3
Please use fulfilled whenever viscosity is not below 200 mPa·s, and not fulfilled whenever it is.

compound	classification
CC(=O)[O-].CCCCCCCCCCCCCC[P+](CCCCCC)(CCCCCC)CCCCCC [trihexyl(tetradecyl)phosphonium acetate] + CCCCCC[n+]1ccn(C)c1.O=S(=O)([N-]S(=O)(=O)C(F)(F)F)C(F)(F)F	fulfilled
CCCCCCCCCCCCCC[P+](CCCCCC)(CCCCCC)CCCCCC.N#Cc1ccc[n-]1 [trihexyl(tetradecyl)phosphonium 2-cyanopyrrolide] + CCCCCC[n+]1ccn(C)c1.O=S(=O)([N-]S(=O)(=O)C(F)(F)F)C(F)(F)F	not fulfilled
CCCCCCn1cc[n+](C)c1.N#Cc1ccc[n-]1 [1-hexyl-3-methylimidazolium 2-cyanopyrrolide] + CCCCCCCCCCCCCC[P+](CCCCCC)(CCCCCC)CCCCCC.O=S(=O)([N-]S(=O)(=O)C(F)(F)F)C(F)(F)F	fulfilled
CCCCCCCCCCCCCC[P+](CCCCCC)(CCCCCC)CCCCCC.O=[N+]([O-])c1cn[n-]c1 [trihexyl(tetradecyl)phosphonium 4-nitropyrazolide] + CCCCCC[n+]1ccn(C)c1.O=S(=O)([N-]S(=O)(=O)C(F)(F)F)C(F)(F)F	fulfilled
CCCCCCCCCCCCCC[P+](CCCCCC)(CCCCCC)CCCCCC.N#Cc1ccc[n-]1 [trihexyl(tetradecyl)phosphonium 2-cyanopyrrolide] + CCCCCCn1cc[n+](C)c1C.O=S(=O)([N-]S(=O)(=O)C(F)(F)F)C(F)(F)F	fulfilled

---

assay-protocol: xn = mol fraction of the nth substance listed
measurement-context: 283.15 K; 100 kPa; Liquid; Cone and plate viscometry; x1 = 0.5

compound	viscosity [mPa·s]
CCCCCCn1cc[n+](C)c1C.O=[N+]([O-])c1cn[n-]c1 [1-hexyl-2,3-dimethylimidazolium 4-nitropyrazolide] + CCCCCCCCCCCCCC[P+](CCCCCC)(CCCCCC)CCCCCC.O=S(=O)([N-]S(=O)(=O)C(F)(F)F)C(F)(F)F	1418
CCCCCCn1cc[n+](C)c1.O=[N+]([O-])c1cn[n-]c1 [1-hexyl-3-methylimidazolium 4-nitropyrazolide] + CCCCCCCCCCCCCC[P+](CCCCCC)(CCCCCC)CCCCCC.O=S(=O)([N-]S(=O)(=O)C(F)(F)F)C(F)(F)F	1045
CCCCCCCCCCCCCC[P+](CCCCCC)(CCCCCC)CCCCCC.N#Cc1ccc[n-]1 [trihexyl(tetradecyl)phosphonium 2-cyanopyrrolide] + CCCCCCn1cc[n+](C)c1C.O=S(=O)([N-]S(=O)(=O)C(F)(F)F)C(F)(F)F	1048
CCCCCCC[P+](CC)(CC)CC.O=[N+]([O-])c1cn[n-]c1 [triethylheptylphosphonium 4-nitropyrazolide] + CC[P+](CC)(CC)COCCOC.O=S(=O)([N-]S(=O)(=O)C(F)(F)F)C(F)(F)F	170
CCCCCCCC[P+](CC)(CC)CC.O=[N+]([O-])c1cn[n-]c1 [triethyloctylphosphonium 4-nitropyrazolide] + CCCCCCn1cc[n+](C)c1C.O=S(=O)([N-]S(=O)(=O)C(F)(F)F)C(F)(F)F	742
